- Tested on: A549 NSCLC
- assay.explanation: NCI tumour cell line growth inhibition, 48 h
reported.endpoint: TGI

## Task Please state recorded TGI (tested on A549 NSCLC) of O=C1CCC2(c3ccc(F)cc3)Nc3ncccc3N12 (configuration not stated)
## Result > 100 µM

## Task And what about the molecule "COc1cc(-c2csc(NC(=O)Nc3ccc(Cl)c(C(F)(F)F)c3)n2)cc(OC)c1OC" ?
## Result 4.75 µM

## Task Would you mind doing "c1ccc2c(c1)CCN2CCN1CCc2ccccc21" as well?
## Result > 10 µM

## Task Then "CCOC(=O)N1Cc2ccoc2C1" ?
## Result > 100 µM

## Task Now consider COc1nc(Cl)nc(Cl)c1Cl (tested in a mixture with another compound) and answer again.
## Result > 66 µM

## Task Next record, please: "OCCCNCc1ccncc1"
## Result > 100 µM

## Task Could you do the same for CC(=O)OC1CCC2(C)C(CCC3C4CC=C(C5(C)OCCO5)C4(C)CCC32)C1 (configuration not stated) , please?
## Result > 100 µM

## Task Same again, this time with "O=C(N/N=C/c1cc(Cl)cc(Cl)c1[O-])c1ccccc1O.O=C(N/N=C/c1cc(Cl)cc(Cl)c1[O-])c1ccccc1O.[Cl-].[Fe+3]"
## Result 63.8 µM

## Task Same for O=C1CC2(CCC(O)(c3ccccc3)C(C(=O)c3ccccc3)C2)C(=O)c2ccccc2N1 (configuration not stated)
## Result > 100 µM

## Task Do the same for "C[CH2][Pb]([CH2]C)([CH2]C)[O]C(=O)COc1ccccc1" please
## Result 5.65 µM

## Task Moving on to the next molecule: "CC1=C(c2cc(C(=O)Nc3cc(C)ccc3C)nc(N)n2)Sc2ccccc2N1"
## Result > 100 µM

## Task What about this molecule? "O=C1c2cccc(O)c2C(=O)c2cccc(O)c21"
## Result > 100 µM

---

- System: RPMI-8226 leukemia
- assay.explanation: NCI tumour cell line growth inhibition, 48 h
Answer each item with its documented TGI.

## Task Can you share its TGI? I mean this molecule: CC1(C)C2CCC13C(=O)C1OC3(C2)C2C(=O)N(c3ccccc3)C(=O)C12 (centres undefined)
## Result > 100 µM

## Task Can you check "CCCCCCCC(=O)SCC/C=C/[C@@H]1CC(=O)NCc2cccc(n2)CN(Cc2ccc3ccccc3c2)CC(=O)N[C@@H](C(C)C)C(=O)O1" next?
## Result > 100 µM

## Task Field entry: CC(=O)OC1CC2C(C)(C)C(=O)C=C[C@]2(C)C2CC[C@]3(C)C(OCC(=O)[C@H]3c3ccoc3)[C@]12C (some centres undefined)
## Result 6.8 µM

## Task Entry "CCOC(=O)c1c(SCc2ccccc2)nc2c3ccccc3ccn12" please
## Result > 100 µM

## Task Check Cc1nc(N)nn1C1OCC(O)C(O)C1O (centres undefined) too.
## Result > 100 µM

## Task # iterate: "CCOP(=O)(/C=C/n1ccc(N)nc1=O)OCC"
## Result > 100 µM

## Task Also CC(O)CCc1ccc(Oc2c3ccccc3nc3occc23)cc1 (centres undefined) ?
## Result > 100 µM

## Task Repeat with "C/C(=N\NC(=O)c1ccncc1)c1cccc(F)c1"
## Result > 10 µM

## Task Now the same for "COc1ccc2nc3cccc([N+](=O)[O-])c3c(NCCNCCO)c2c1"
## Result 0.111 µM
